Target: T1, SARS-CoV-2 RBD-mFc (SARS-CoV-2, UniProt P0DTC2 319-541)
T1 construct: range 319-541
Assay: flow cytometry competition: RBD-mFc on HEK293E/ACE2 cells

{"columns": ["Binder", "IC50"],
 "data": [
  ["SA4114 (antibody, V domains shown) VH: QVQLVESGGTLVQPGRSLRLSCAASGFTFSSYAMHWVRQAPGKGLEWVAVISYDGSNKYYADSVKGRFTISRDNSKNTLYLQMNSLRAEDTAVYYCARRGHYYDSSGFLYWGQGTLVTVSS VL: DIQMTQSPSSLSASVGDRVTITCRAGQSIDNYLNWYQQKPGKAPKLLIYAASTLHSGVPSRFSGSGSGTDFTLTISSLQPDDFATYYCQQSYSIPRTFGQGTKLEIK", "2.39 nM"],
  ["SA4079 (antibody, V domains shown) VH: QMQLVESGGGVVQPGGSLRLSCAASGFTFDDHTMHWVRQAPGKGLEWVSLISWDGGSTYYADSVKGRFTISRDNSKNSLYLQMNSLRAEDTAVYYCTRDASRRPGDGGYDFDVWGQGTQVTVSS VL: QAVVTQEPSLTVSPGGTATLTCGSSTGTVTRGHWPYWFQQKPGQAPRTLIYDTDTKHSWTPARFSGSLLGGKAALTLSGAQPEDEADYYCLLSYSDSRVFGTGTKVTVL", "2.35 nM"],
  ["SA3779 (antibody, V domains shown) VH: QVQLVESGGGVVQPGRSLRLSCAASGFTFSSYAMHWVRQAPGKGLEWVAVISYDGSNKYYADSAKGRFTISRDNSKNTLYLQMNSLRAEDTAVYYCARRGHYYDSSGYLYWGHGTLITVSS VL: DIQMTQSPSSLSASVGDRVTITCRASQRIATYLHWYQQKPGRAPKLLIYAASSLQTGVPSRFSGSGSGTDFTLTINSLQPEDFATYYCQQSYAIPYTFGQGTKLEIK", "2.65 nM"],
  ["SA3827 (antibody, V domains shown) VH: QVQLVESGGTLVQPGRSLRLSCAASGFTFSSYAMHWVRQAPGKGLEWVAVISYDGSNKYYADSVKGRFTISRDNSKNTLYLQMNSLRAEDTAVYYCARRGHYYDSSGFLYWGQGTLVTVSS VL: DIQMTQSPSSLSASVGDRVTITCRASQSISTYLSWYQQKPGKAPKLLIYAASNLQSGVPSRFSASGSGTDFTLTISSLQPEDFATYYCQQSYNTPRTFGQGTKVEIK", "2.71 nM"],
  ["SA4118 (antibody, V domains shown) VH: QVQLVESGAEVKKPGASVRVSCKISGYIFTELSIHWVRQAPGKGLEWMGGFDPEEGKTIYAQKFQGRVTMTEDTSTDTAYMELSSLRSEDTAVYYCAKIGHLGDFWYWGQGTLITVSS VL: QSALTQPASVSGSPGQSITISCTGTTSDIGSYDYVSWYQQHPGKAPKLIIYGVTRRPSGVSNRFSGSKSGNTASLTISGLQAEDEANYYCSSCTRSSTYVFGTGTKVTVL", "2.71 nM"]
]}
